System: NCI-H522 lung
EXPERIMENT_NOTES: NCI-60 one-dose screen, 48 h (100 = growth as untreated, 0 = no growth, -100 = all killed)
RECORDED_CONDITIONS: 10 µM unless noted
Method: Growth inhibition of the NCI-H522 human Non-Small Cell Lung tumor cell line is measured as a screen for anti-cancer activity. Cells are grown in 96 well plates and exposed to the test compound for 48 hours. Compounds are tested at a single concentration, which is 10^-5 M for most compounds. The reported endpoint is percent growth (GI% or GIPRCNT), where numbers from 0 - 100% represent growth inhibition, and numbers from -100% - 0 represent cell death. […]
About 83,000 compounds went through this panel and 20% of them were active in at least one assay; those are over-represented in the sample as a whole.
Quick reference for growth among some compounds
Provide the reading as a plain figure in %.

Answered cases to consult:
Cc1ncc(C(=O)Nc2ccc(CN3CCN(C)CC3)c(C(F)(F)F)c2)cc1C#Cc1cnc(N)c2ncccc12 | 26.2
O=C1c2cccc3cccc(c23)C(=O)N1C/C=C/c1ccc2c3c(cccc13)C(=O)N(CCO)C2=O | 89.2
Clc1ccc(-c2cc(-c3ccccc3)nc(NCCNc3ccnc4cc(Cl)ccc34)n2)cc1 | -35.9

-- ask Fill in growth for record `CC1(C)[C@@H](O[C@@H]2OC[C@@H](O[C@@H]3O[C@H](CO)[C@@H](O)[C@H](O)[C@H]3O[C@@H]3OC[C@@H](O)[C@H](O)[C@H]3O)[C@H](O)[C@H]2O[C@@H]2O[C@H](CO)[C@@H](O)[C@H](O)[C@H]2O)CC[C@]2(C)[C@H]3CC[C@]45OC[C@@]6(CC[C@](C)(C=O)C[C@H]64)[C@H](O)C[C@@]5(C)[C@]3(C)CC[C@@H]12`
-- reply -89.7

-- ask Fill in growth for record `[2H]C([2H])([2H])Oc1ccc(F)cc1/C=C/C(=O)/C=C(/C=C/c1cc(F)ccc1OC([2H])([2H])[2H])OB(F)F`
-- reply 18.9

-- ask Fill in growth for record `COC(=O)c1c2c(c(C)[n+]([O-])c1C)C(=O)C(NCc1ccc(OC)cc1)=CC2=O`
-- reply -5.69

-- ask Fill in growth for record `COc1cccc(C(=O)NNc2nc(Cl)nc(Cl)n2)c1`
-- reply 100

-- ask Fill in growth for record `O=C1/C(=C/c2ccc(O)c(O)c2)COc2ccc(-c3ccccc3)cc21`
-- reply -67.2

-- ask Fill in growth for record `COc1ccc2cc(-c3ccnc4c(N=Nc5ccc(Cl)cc5)c(N)nn34)ccc2c1`
-- reply 95.6

-- ask Fill in growth for record `CN(C)S(=O)(=O)Oc1ccc(-c2sc3cc(OS(=O)(=O)N(C)C)ccc3c2C(=O)c2ccc(OCCN3CCCCC3)cc2)cc1`
-- reply 39.6
